Tested on: maize
Test: Crop safety test (pot culture method)
Format: in vivo
Cond: dose 150 g/ha, plants with about 4-5 leaves, investigated 15 days later
Below is a list of entries, each paired with its recorded inhibition ratio, Maize (crop safety) value.
Readout: inhibition ratio, Maize (crop safety) (%)

• CC(C)c1ccccc1-n1c(=O)c2cc(C(=O)C3=C(O)CCCC3=O)ccc2n(C)c1=O = 10
• CCn1c(=O)n(-c2ccccc2C)c(=O)c2cc(C(=O)C3=C(O)CCCC3=O)ccc21 = 5
• Cn1c(=O)n(-c2cccc(Br)c2)c(=O)c2cc(C(=O)C3=C(O)CCCC3=O)ccc21 = 0
• Cn1c(=O)n(-c2ccccc2Cl)c(=O)c2cc(C(=O)C3=C(O)CCCC3=O)ccc21 = 15
• CCn1c(=O)n(-c2ccccc2C)c(=O)c2cc(C(=O)C3=C(O)CC(C)CC3=O)ccc21 (centres unmarked) = 15
